# Assayed Target: NHERF4_4, Q86UT5
# Sequence (Q86UT5 464-550): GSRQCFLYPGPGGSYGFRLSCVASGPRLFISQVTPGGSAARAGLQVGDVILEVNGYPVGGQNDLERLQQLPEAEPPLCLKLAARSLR
# Experiment Notes: holdup assay
# Parameters: key: below the threshold = too weak to quantify, mostly under pKd 3.1 to 4
# Test Context: plain residues with an end cap or a label only (N-terminal biotin on a linker: ado-ado)
Property: pKd

If you can, please state the reported pKd value of GNSVLKSTQF [SLC22A12, Q96S37] .
below the threshold

If you can, please state the reported pKd value of HSGYRLNDYV [CLDN14, O95500] .
3.94

If you can, please state the reported pKd value of PKRSFIESNV [TANC1, Q9C0D5] .
3.83

If you can, please state the reported pKd value of SGSLKLMTTV [DACT1, Q9NYF0] .
below the threshold

If you can, please state the reported pKd value of PPYRHRNTVV [ERBB4, Q15303] .
below the threshold

New cases:
If you can, please state the reported pKd value of DTTVPESEDL [MYOZ2, Q9NPC6] .
below the threshold

If you can, please state the reported pKd value of QGLAERISVL [PRKD2, Q9BZL6] .
3.97

If you can, please state the reported pKd value of YNNCLEILRV [DCAF7, P61962] .
below the threshold
